# target_of_assay: SNAP-25 peptide comprising amino acids 134-197 of SEQ ID NO:5 (human)
# test_protocol: SPR (BIAcore 3000), peptide on CM5 chip, 1:1 fit

binder	kon
α-SNAP-25 mouse monoclonal antibody 2E2A6 (antibody, V domains shown) VH: QVQLQQSDAELVKPGASVKISCRASGYTFTDHSIHWVKQQPGQGLEWIGYIFPGNGNIEYNDKFKGKATLTADKSSGTAYMQLNSLTSEDSAVYFCKRMGYWGQGTSVTVSS VL: DVLMTQTPLTLSVTIGQPASISCKSSQSLLYTNGKTYLTWLFQRPGQSPKRLIYLVSELDSGVPDRFSGSGSGTDFTLEITRVEAEDLGVYYCLQSAHFPFTFGSGTKLEIKR	1.7e+06 M⁻¹ s⁻¹
